From: patent US6300501A

system: H61 cells: NIH transformed 3T3 H-ras cells; test: Clonogenic assay (6 well plates, soft agar); type: cell-based; conditions: 312 h, colonies counted after Day 13, read-out: Clonogenic Assay IC50
Assign IC50 to each entry below.

Recorded IC50, per entry:
molecule	system_name	IC50
CC(CNC(=O)CN(Cc1ccc(F)cc1)C(=O)[C@H](Cc1c[nH]cn1)NC(=O)OCc1ccccc1)c1ccccc1 (stereo partly shown)	H61 cells: NIH transformed 3T3 H-ras cells	> 1000 nM
CC(CNC(=O)CN(Cc1ccccc1)C(=O)[C@H](Cc1c[nH]cn1)NC(=O)OCc1ccccc1)c1ccccc1 (stereo partly shown)	H61 cells: NIH transformed 3T3 H-ras cells	> 1000 nM
CC(C)(CNC(=O)CN(Cc1ccc(OCc2ccccn2)cc1)C(=O)[C@H](Cc1c[nH]cn1)NC(=O)OCc1ccccc1)c1ccccc1	H61 cells: NIH transformed 3T3 H-ras cells	190 nM
CC(CNC(=O)CN(Cc1cccc(Cl)c1)C(=O)[C@H](Cc1c[nH]cn1)NC(=O)OCc1ccccc1)c1ccccc1 (stereo partly shown)	H61 cells: NIH transformed 3T3 H-ras cells	> 1000 nM
CC(C)(CNC(=O)CN(Cc1ccc(OCc2ccccc2)cc1)C(=O)[C@H](Cc1cnc[nH]1)NC(=O)OCc1ccccc1)c1ccccc1	H61 cells: NIH transformed 3T3 H-ras cells	190 nM
COc1cccc(CN(CC(=O)NCC(C)c2ccccc2)C(=O)[C@H](Cc2c[nH]cn2)NC(=O)OCc2ccccc2)c1 (stereo partly shown)	H61 cells: NIH transformed 3T3 H-ras cells	> 1000 nM

Tell me the measured IC50 of "CC(C)(CNC(=O)CN(Cc1ccc(F)cc1)C(=O)[C@H](Cc1c[nH]cn1)NC(=O)OCc1ccccc1)c1ccccc1" , please. > 1000 nM
